- system: PSA (human, UniProt P07288)
- Sequence (P07288 25-261): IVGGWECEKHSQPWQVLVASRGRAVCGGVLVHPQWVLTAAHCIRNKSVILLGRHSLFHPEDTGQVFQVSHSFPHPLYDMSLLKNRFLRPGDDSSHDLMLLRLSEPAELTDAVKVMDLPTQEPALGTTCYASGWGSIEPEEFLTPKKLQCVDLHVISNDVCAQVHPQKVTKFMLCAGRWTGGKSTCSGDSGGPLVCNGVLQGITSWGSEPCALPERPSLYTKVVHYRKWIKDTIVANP
- measurement.description: competition, IFMA with free PSA
pIC50: −log10 of the molar value.
measure.name: pIC50

binder: CVAYCIEHHCWTC [GST-C-4]
value.reported: 9.15

Source of measurements: patent US20080312141
